Reference for the values: patent US20190119200A1

// values below are reported Emax
- Tested On: LPAR1 (Homo sapiens, UniProt Q92633)
- Construct: host or cells: U2OS
- Sequence (Q92633 whole entry): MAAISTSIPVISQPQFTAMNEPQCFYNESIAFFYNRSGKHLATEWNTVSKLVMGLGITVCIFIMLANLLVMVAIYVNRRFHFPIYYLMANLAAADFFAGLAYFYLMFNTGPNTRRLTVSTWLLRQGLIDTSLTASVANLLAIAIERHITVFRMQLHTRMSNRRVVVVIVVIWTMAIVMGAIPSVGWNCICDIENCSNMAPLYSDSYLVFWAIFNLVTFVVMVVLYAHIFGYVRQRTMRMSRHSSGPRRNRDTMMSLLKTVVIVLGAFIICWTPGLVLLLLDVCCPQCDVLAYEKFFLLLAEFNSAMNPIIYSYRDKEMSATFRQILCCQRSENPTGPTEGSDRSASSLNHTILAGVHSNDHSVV
- Protocol Notes: LPAR1 FLIPR Assay
- Format: cell-based
- Study Conditions: U2OS cells stably expressing LPAR1; LPA (EC80); Calcium 6 FLIPR dye; read-out: Maximum Inhibition

{"columns": ["Compound", "Emax (%)"],
 "data": [
  ["COc1cc(OC)cc(C(=O)N(CCCCC(=O)O)CCCc2ccc(F)cc2)c1 [Example 148]", 47],
  ["COc1ccc(C2(C(=O)N(CCCCC(=O)O)CCCc3ccccc3)COC2)cc1 [Example 89]", 95],
  ["COc1cc(C(=O)N(CCCCC(=O)O)CCCc2ccccc2)cc(OC)c1C1CC1 [Example 35]", 98],
  ["CCOc1cc(OCC)cc(C(=O)N(CCCCC(=O)O)CCCc2ccccc2)c1 [Example 18]", 89],
  ["COc1cc(C(=O)N(CCCc2ccccc2)CCC[C@H](C)C(=O)O)cc(OC)c1C (single isomer, unassigned) [Example 78]", 100],
  ["COc1cc(C(=O)N(CCCCc2nnn[nH]2)CCCc2ccccc2)cc(OC)c1C [Example 166]", 96],
  ["COc1ccc(C2(C(=O)N(CCCCC(=O)O)CCCc3cccc(F)c3)CC2)cc1 [Example 92]", 90],
  ["Cc1c(Cl)cc(C(=O)N(CCCCC(=O)O)CCCc2ccccc2)cc1Cl [Example 16]", 70]
]}
